Test system: RXRa homodimer (NR concentration 180 nM)
Experiment: PBM binding z-score (relative to random genomic background probes); higher = stronger binding; sequences stand for … in GC…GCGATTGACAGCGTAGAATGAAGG
Quick rule for you: PBM binding z-score at 3 or higher means True, lower means False.

Completed entries (count: 6):
polymer sequence	category label
TCAGACAGATGAAGGTAACTCAGGTACGCAGTCG	False
TAGCCTTGGTCATTGGGCCAGTATAGTACGCATC	False
TAGCCTAGGCCATTGGGCCAGTATAGTACGCATC	False
ATCTCAAGGTAAGACTCAGTTCAGTGAAGAACGC	False
CCGAGTAGGTTATGTGGCATTCAGGCAACGGTGA	False
TCATATAGGTAAAAGGTGACAGTCGGTGTGGTAA	False

Is PBM binding z-score for CGTCCTAGGTCATAGGAGGTCAGTGAAGACAGAT at or above 3?
True

Is PBM binding z-score for TCATACAGGTAAATGCTAGGTGAAAGTCCGATCT at or above 3?
False

Is PBM binding z-score for GGAACGAGGGCAATTTGATAGCAGAGTTTGATGG at or above 3?
False

Is PBM binding z-score for ACTCGGAGGACAAAGGTCAGAGTTACGCCAGTGA at or above 3?
True

Is PBM binding z-score for TATACAGGGTCAAAGGCCAGAGCACGAATGTCGA at or above 3?
True

* * *

Test system: THRa:RXRa (NR concentration 90 nM, RXRa partner concentration 90 nM)
Assay: PBM binding z-score (relative to random genomic background probes); higher = stronger binding; sequences stand for … in GC…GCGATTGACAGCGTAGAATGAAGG
Measured PBM binding z-score accompanies every entry in the list below.
Give only the figure.

polymer sequence	result number
TGTCAAAGTTCAACGGTAACGTAAGTATCCACAC	1.98

Reported PBM binding z-score for CCAGACAGGTGAGCAGGTAACTCAGCCTCGATTA : what is it?
0.218

Reported PBM binding z-score for TCAAATAGGTAATACAGGTGAAAGTCGGCATCTA : what is it?
0.877

Reported PBM binding z-score for ATCGAAAGGTCGTGAGGTGAGTCTACAGAAAGGC : what is it?
3.48

* * *

System: RARa:RXR (NR concentration 270 nM, RXRa partner concentration 90 nM)
Assay: PBM binding z-score (relative to random genomic background probes); higher = stronger binding; sequences stand for … in GC…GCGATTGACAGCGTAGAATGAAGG
Quick rule for you: PBM binding z-score at 2 or higher means t, lower means f.

polymer sequence	category label
TCATATAGGTAAAAGGTGATAGTCGGTGTGGTAA	f

Is PBM binding z-score for TCTAGCAGCCCAGAGGGTCACTCAAGAGGTACGG at or above 2?
t

Is PBM binding z-score for CAAACTAGGTCAAGAAAGGTCAAAGTCGAATGAC at or above 2?
t

Is PBM binding z-score for ATCTCTAGGTAAAGACAGTTCAGTGAATGCAAAT at or above 2?
f

* * *

System: VDR homodimer (NR concentration 270 nM)
Assay: PBM binding z-score (relative to random genomic background probes); higher = stronger binding; sequences stand for … in GC…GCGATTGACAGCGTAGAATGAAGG
experimental endpoint: PBM binding z-score

// worked examples, PBM binding z-score included
polymer sequence	subject of test	result
CCACACAGGTGAGAAGGTAACTCAGCCTCGATTA	VDR homodimer (NR concentration 270 nM)	-0.221
TCTATTAGTTGATTAGGGCAACGGAAACAGCGGA	VDR homodimer (NR concentration 270 nM)	0.264
CCGACTGGGGCAAAGGGTACCATACTCAGTACGA	VDR homodimer (NR concentration 270 nM)	0.0229
AGAATGAGGTTATGCGTAGATCAGGGAAGAAAGT	VDR homodimer (NR concentration 270 nM)	0.644
CGAACTAGGTCAGAACTGGACAGTGAAGGATGAT	VDR homodimer (NR concentration 270 nM)	0.221

Reported PBM binding z-score for CCGACTGGGGCAGAAAGGTTACCATACCATCCGG : what is it?
-0.314

Reported PBM binding z-score for GCGACTGGGGCATCAGCACGTTACCATAACTTAA : what is it?
-0.335

Reported PBM binding z-score for TAGCCTAGGTCATGCGGGCCAGTCTAGTGTCGGC : what is it?
0.569

Reported PBM binding z-score for TCTTGTGGATCAAAGGTTAAGAAAGCCGAAGCCT : what is it?
-0.0408

Reported PBM binding z-score for GCTCGTTGGTCAGTAAAAGGTCACACACCGGTCG : what is it?
2.44

Reported PBM binding z-score for CGAACTAGGTCATTAACAGGACAGTGAATAGTAA : what is it?
1.15

Reported PBM binding z-score for CCAGACAGGTGAGAAGGTAGCTCAGCCTCGATTA : what is it?
-0.24

* * *

Test system: RARg homodimer (NR concentration 270 nM)
Assay: PBM binding z-score (relative to random genomic background probes); higher = stronger binding; sequences stand for … in GC…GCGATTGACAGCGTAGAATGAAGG
Measured PBM binding z-score accompanies every entry in the list below.

// worked examples, PBM binding z-score included
polymer sequence	PBM binding z-score
TTACCAAGGTGAAAGATCGTTGATGCACGCCTTG	0.398
CGTCGAAGTTCAAGGTAACGTAACAGAAAGCAGC	3.25
CCTAGTTGGTCAAGGTCACACAAGCTATAGGTAC	4.89

Reported PBM binding z-score for TAGCCTAGGTCATGGTCCAGTATACCACGCGAAC : what is it?
4.28

Reported PBM binding z-score for CGTCAAAGTTCAACAAAGGTAACGTAAAGCACGC : what is it?
6.4

Reported PBM binding z-score for TCTATTAGTTGAAGGGCAACCGACGAGTCCGTTT : what is it?
0.786

Reported PBM binding z-score for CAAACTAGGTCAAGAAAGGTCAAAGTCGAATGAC : what is it?
7.9

Reported PBM binding z-score for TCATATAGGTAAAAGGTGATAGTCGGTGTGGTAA : what is it?
0.577

Reported PBM binding z-score for CCAACTAGGTCACAGAGGTCAAAGTCCGTGCGTA : what is it?
8.06

Reported PBM binding z-score for CGTCCAAGGTCAATGCTAGGTCAATGAAAGCATT : what is it?
6.89

Reported PBM binding z-score for CCAGACAGGCGAAAGGTAACTCAGTCTGGTACGC : what is it?
-0.491

Reported PBM binding z-score for CGCCCAAGGTCAATGCTAGGTCAGTGAAAGCATT : what is it?
6.43

Reported PBM binding z-score for ACTTACGGGTCAACGAGGTTATAGAACGCGTATA : what is it?
5.34

Reported PBM binding z-score for TCTAGTTGGTCAAAGGTCACTCACTCGAAATGCG : what is it?
6

Reported PBM binding z-score for TAGCCTAGGACATTGGGCCAGTATAGTACGCATC : what is it?
0.0958

Reported PBM binding z-score for CCTCGGAGGACAGAAGGTAAGAGCTGTCCGCTTT : what is it?
0.0766

Reported PBM binding z-score for TCTAGTTTGTCAAAGGTCACACACTCGAAATGCG : what is it?
5.71

Reported PBM binding z-score for CGAACTAGGTCAGAACAGGACAATGAAGGATGAT : what is it?
3.32

Reported PBM binding z-score for CCTAGCAGGCCTATCTGGGTCACTCAAGGCTTGA : what is it?
0.616

Reported PBM binding z-score for ATCGAAAGGTCGACGAGATGAGTATACACCGTTT : what is it?
3.95

Reported PBM binding z-score for ATATGTAGATTAAGGGTCATTCAGGTTGGTTCGC : what is it?
2.52

Reported PBM binding z-score for ATAACGAGGGCACGCTGAGTTGATAGCAGAGTAG : what is it?
2.4

Reported PBM binding z-score for TCTTGTAGATCTAGCAGGTTAAGAAAGCCTGAGT : what is it?
-0.19

Reported PBM binding z-score for ATATGTAGGTTAGCTGGGGTCATTGAGACTAGGC : what is it?
2.91

Reported PBM binding z-score for ACTTATGGGTCAACGAGGTTATAGCACGCGTATA : what is it?
5.1

Reported PBM binding z-score for GCAGACAGGTGAAACGCAGGTGACTCAGGGTGGC : what is it?
0.482

* * *

Tested on: FXR:RXRa (NR concentration 270 nM, RXRa partner concentration 90 nM)
Experiment: PBM binding z-score (relative to random genomic background probes); higher = stronger binding; sequences stand for … in GC…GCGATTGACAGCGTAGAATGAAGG
Quick rule for you: PBM binding z-score at 4 or higher means Met, lower means Not met.

Is PBM binding z-score for CGTCCAAGGTCATAGGAGGTCGGTGAAGACAGAT at or above 4?
Met

Is PBM binding z-score for AGAACGAGGGCAATGAGTTGACAGCACGGGTGGC at or above 4?
Not met

Is PBM binding z-score for CCTAGTTGGTCAGGAGGACACACACCGGATATGA at or above 4?
Not met

Is PBM binding z-score for CGAACTAGGTCATTGACAGGACAGTTAATAGTAA at or above 4?
Met

Is PBM binding z-score for TCAAACAGGTGAAGGTAACTCAGGTACGCAGTCG at or above 4?
Not met

Every entry's value here was drawn from the supplement of paper PMC6555819.
